Molecular target: fibrin
Sequence (P02671 36-629, chain 1 of 3): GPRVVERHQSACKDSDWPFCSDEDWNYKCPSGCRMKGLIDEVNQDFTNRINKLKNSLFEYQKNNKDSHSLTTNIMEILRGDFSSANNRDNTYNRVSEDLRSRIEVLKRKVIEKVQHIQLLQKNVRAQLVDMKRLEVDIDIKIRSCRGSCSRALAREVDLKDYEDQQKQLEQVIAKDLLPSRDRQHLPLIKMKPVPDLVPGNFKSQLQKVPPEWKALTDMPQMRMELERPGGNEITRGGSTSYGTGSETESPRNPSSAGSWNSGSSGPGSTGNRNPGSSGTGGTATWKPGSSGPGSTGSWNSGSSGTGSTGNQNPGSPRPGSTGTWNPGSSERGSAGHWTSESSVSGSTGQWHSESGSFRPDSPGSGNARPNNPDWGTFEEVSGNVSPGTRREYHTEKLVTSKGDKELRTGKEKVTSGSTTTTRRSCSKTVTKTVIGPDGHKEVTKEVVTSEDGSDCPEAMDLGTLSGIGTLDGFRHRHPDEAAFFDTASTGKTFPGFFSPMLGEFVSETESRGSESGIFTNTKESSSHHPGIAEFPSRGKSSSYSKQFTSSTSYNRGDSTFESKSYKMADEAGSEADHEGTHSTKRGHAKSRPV
Sequence (P02675 45-491, chain 2 of 3, further chain): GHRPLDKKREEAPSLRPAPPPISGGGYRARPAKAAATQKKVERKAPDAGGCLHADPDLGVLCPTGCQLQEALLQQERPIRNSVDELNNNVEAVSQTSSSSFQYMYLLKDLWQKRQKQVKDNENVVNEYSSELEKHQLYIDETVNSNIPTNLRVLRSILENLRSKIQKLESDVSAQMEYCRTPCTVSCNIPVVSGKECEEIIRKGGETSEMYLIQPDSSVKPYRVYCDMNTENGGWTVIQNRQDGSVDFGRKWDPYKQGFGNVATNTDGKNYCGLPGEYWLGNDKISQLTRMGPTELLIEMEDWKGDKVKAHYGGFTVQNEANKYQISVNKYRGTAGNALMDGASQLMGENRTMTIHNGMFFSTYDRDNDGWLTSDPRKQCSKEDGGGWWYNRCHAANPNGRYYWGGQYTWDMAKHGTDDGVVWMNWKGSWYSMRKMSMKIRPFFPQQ
Sequence (P02679 other isoform, or with tags, fused parts or gaps, chain 3 of 3, further chain): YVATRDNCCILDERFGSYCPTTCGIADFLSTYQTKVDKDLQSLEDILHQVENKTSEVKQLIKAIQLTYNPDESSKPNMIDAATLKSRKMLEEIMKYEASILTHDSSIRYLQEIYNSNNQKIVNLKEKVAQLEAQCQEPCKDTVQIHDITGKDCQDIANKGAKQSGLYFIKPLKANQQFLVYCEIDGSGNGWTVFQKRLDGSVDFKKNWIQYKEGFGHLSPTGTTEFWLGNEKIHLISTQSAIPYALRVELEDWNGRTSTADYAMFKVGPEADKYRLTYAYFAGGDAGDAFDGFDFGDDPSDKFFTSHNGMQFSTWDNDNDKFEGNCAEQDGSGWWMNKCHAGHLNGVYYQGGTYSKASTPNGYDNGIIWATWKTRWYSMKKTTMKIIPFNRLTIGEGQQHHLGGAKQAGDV
Assay: competition fluorescence polarization assay (n = 2)
Bridge positions count the residues as written; N and C are the ends. Square brackets hold non-standard residues; d marks the D form. Phe(3,4-F2) = N[C@@H](Cc1ccc(F)c(F)c1)C(=O)O; Thf2ca = tetrahydrofuran-2-carboxylic acid; Phe(4-F) = N[C@@H](Cc1ccc(F)cc1)C(=O)O; Cha = N[C@@H](CC1CCCCC1)C(=O)O
Provide the recorded Rel IC50 (ratio to Ac-Seq000-GGGK-NH2) for the entries that follow.
Quick one: just the number, no unit, thanks!

-- ask Give its Rel IC50 (ratio to Ac-Seq000-GGGK-NH2) value. Item: H-GWQPCPWESWTFCWDPGGGK-NH2 (disulfide 5-13) [GWQPC*PWESWTFC*WDPGGGK-NH2]
-- reply 0.622

-- ask Give its Rel IC50 (ratio to Ac-Seq000-GGGK-NH2) value. Item: Ac-GWQPCPWESWTFCWDPGGGK-NH2 (disulfide 5-13) [Ac-GWQPC*PWESWTFC*WDPGGGK-NH2]
-- reply 1.04

-- ask Give its Rel IC50 (ratio to Ac-Seq000-GGGK-NH2) value. Item: Ac-WQPCPWESWT[Phe(4-F)]CWDPGGGK-NH2 (disulfide 4-12) [Ac-WQPC*PWESWT-Ffe4-C*WDPGGGK-NH2]
-- reply 0.601

-- ask Give its Rel IC50 (ratio to Ac-Seq000-GGGK-NH2) value. Item: Thf2ca-WQPCPWESWTFCWDPGGGK-NH2 (disulfide 4-12) [Thf2ca-WQPC*PWESWTFC*WDPGGGK-NH2]
-- reply 0.616

-- ask Give its Rel IC50 (ratio to Ac-Seq000-GGGK-NH2) value. Item: Ac-WQPCPWESWT[Phe(3,4-F2)]CWDPGGGK-NH2 (disulfide 4-12) [Ac-WQPC*PWESWT-F34fe-C*WDPGGGK-NH2]
-- reply 0.428

-- ask Give its Rel IC50 (ratio to Ac-Seq000-GGGK-NH2) value. Item: Ac-WQPCPWESWT[Cha]CWDPGGGK-NH2 (disulfide 4-12) [Ac-WQPC*PWESWT-Cha-C*WDPGGGK-NH2]
-- reply 0.494
